// data source = a melting point compilation (Tetko et al.; mined from patent text by program, amines drawn as free bases though some values may be those of a salt)

Here the recorded melting point is given for each entry.

Below: 5 compounds and their reported melting point.
1. C[C@@H](OC(=O)c1cc([N+](=O)[O-])cc([N+](=O)[O-])c1)[C@@]1(c2ccc(F)cc2F)CO1 ... 104 to 107 °C
2. CCOC(=O)C(C)(C)CCCCCOc1ccc(-c2csc(NC(=O)NC3CCCCC3)n2)cc1 ... 106 to 108 °C
3. COC(=O)C(Oc1cccc2ccccc12)c1ccc(Oc2ccc(Cl)cc2)cc1 (configuration not stated) ... 107 to 110 °C
4. COc1ccc(C(C)(C)C(=O)O)cc1 ... 86 to 88 °C
5. CC(=O)c1ccc(NS(C)(=O)=O)c(NC(=O)c2ccc(F)cc2F)c1 ... 203 to 204 °C

Lookup: Would you kindly share the measured melting point for O=c1c2cc(F)c(F)cc2n(CC2CC2)c(=O)n1OCc1ccccc1 ?
Found: 121 to 123 °C

Lookup: Would you kindly share the measured melting point for COc1ccc(C(CC(=O)O)N2C(=O)C3C=C(Cl)C(Cl)=C(Cl)C3(Cl)C2=O)cc1 (configuration not stated) ?
Found: 236 to 238 °C

Lookup: Would you kindly share the measured melting point for COc1ccc(OC)c(CCc2ccc3ncn(C)c(=O)c3c2)c1 ?
Found: 83 to 85 °C

Lookup: Would you kindly share the measured melting point for CCn1ncc2c(NN=C(C)C)c(C(N)=O)cnc21 ?
Found: 217 to 218 °C

Lookup: Would you kindly share the measured melting point for COc1ccc(Cl)nc1N ?
Found: 134 to 135 °C

Lookup: Would you kindly share the measured melting point for CN(C)c1ccc(C(=O)N(CCN2CCC(C(=O)c3ccc(F)cc3)CC2)c2cccnc2)cc1 ?
Found: 147 to 152 °C

Lookup: Would you kindly share the measured melting point for O=C(O)Cc1c(Cl)cc([N+](=O)[O-])cc1Cl ?
Found: 206 to 207 °C

Lookup: Would you kindly share the measured melting point for CCOC(=O)CCC(CCCCNS(=O)(=O)c1ccc(Cl)cc1)CCOc1cccnc1 (configuration not stated) ?
Found: 90 to 93 °C

Lookup: Would you kindly share the measured melting point for CCCCCCC/C=C/C(=O)NCCN1CCCC1 ?
Found: 56 to 58 °C

Lookup: Would you kindly share the measured melting point for CC(C)(C)c1cc(I)c2c(c1)CNC1(CCSCC1)O2 ?
Found: 123 to 124 °C

Lookup: Would you kindly share the measured melting point for CSc1nccc(-c2ssc(=S)c2C)n1 ?
Found: 170 to 172 °C

Lookup: Would you kindly share the measured melting point for O=C(NC(=O)c1cc(F)c(Cl)nc1Cl)NC1CC1 ?
Found: 171 to 173 °C

----------
Here the recorded melting point is given for each entry.

1. Cc1n[nH]c(=O)n1-c1ccc([N+](=O)[O-])cc1 ... 226 °C
2. Nc1c2c(=O)c3ccccc3c(=O)c2c(N)c2c(=O)n(CCCO)c(=O)c12 ... 261 to 262 °C

Lookup: Would you kindly share the measured melting point for CCOC(=O)C(C)(C)c1cn2nc(CCCCN3CCN(C(c4ccccc4)c4ccccc4)CC3)ccc2n1 ?
Found: 105 to 106 °C

Lookup: Would you kindly share the measured melting point for O=C1CN(CCCBr)Oc2ccccc21 ?
Found: 90 to 92 °C

Lookup: Would you kindly share the measured melting point for O=C(c1ccccc1)c1ccc(-c2ccc(CBr)cc2)cc1 ?
Found: 110 to 112 °C
